- system tested: rat brain nicotinic receptor (α7 NAChR) (Rattus norvegicus (Rat))
- Assay type: binding
Recorded Ki split into classes bin 0: < 200 nM; bin 1: ≥ 200 nM and < 400 nM; bin 2: ≥ 400 nM

O=C(OCC12CCN(CC1)CC2)c1c[nH]c2cccc(Br)c12 [Compound 24]    bin 0
COc1ccc2c(C(=O)OCC34CCN(CC3)CC4)c[nH]c2c1 [Compound 17]    bin 1
Cl.O=C(OCC12CCN(CC1)CC2)c1c[nH]c2cc(F)cc(Cl)c12 [Compound 64, hydrochloride]    bin 1
Cc1cc(Cl)cc2[nH]cc(C(=O)OCC34CCN(CC3)CC4)c12 [Compound 50]    bin 2
Cc1ccc2[nH]cc(C(=O)OCC34CCN(CC3)CC4)c2c1Br [Compound 68]    bin 1
COc1cc2[nH]cc(C(=O)OCC34CCN(CC3)CC4)c2cc1F.Cl [Compound 32, hydrochloride]    bin 1
O=C(OCC12CCN(CC1)CC2)c1c[nH]c2ccc(Br)cc12 [Compound 23]    bin 1
O=C(OCC12CCN(CC1)CC2)c1c[nH]c2cc(O)cc(Cl)c12 [Compound 46]    bin 0
O=C(OCC12CCN(CC1)CC2)c1c[nH]c2c(Cl)cccc12 [Compound 25]    bin 2

* * *

Recorded Ki by entry
- system tested: rat brain nicotinic receptor (α7 NAChR) (Rattus norvegicus (Rat), UniProt Q05941)
- Sequence (Q05941 23-502 limits assumed): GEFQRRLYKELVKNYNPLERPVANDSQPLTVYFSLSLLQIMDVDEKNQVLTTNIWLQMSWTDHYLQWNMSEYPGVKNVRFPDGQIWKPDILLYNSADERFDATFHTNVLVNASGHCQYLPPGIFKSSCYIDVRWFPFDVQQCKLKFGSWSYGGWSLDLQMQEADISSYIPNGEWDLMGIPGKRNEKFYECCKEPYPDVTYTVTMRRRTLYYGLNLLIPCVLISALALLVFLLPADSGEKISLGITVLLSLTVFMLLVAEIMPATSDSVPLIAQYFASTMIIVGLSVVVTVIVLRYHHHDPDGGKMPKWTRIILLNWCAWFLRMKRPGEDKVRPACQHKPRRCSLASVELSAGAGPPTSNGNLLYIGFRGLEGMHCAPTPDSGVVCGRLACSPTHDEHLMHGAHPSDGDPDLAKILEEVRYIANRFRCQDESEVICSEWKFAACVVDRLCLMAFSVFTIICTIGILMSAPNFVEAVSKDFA
- Assay type: binding
- condition info: Protocol No. 2; [3H] α-Bungarotoxin 0.4 nM, rat brain P2 membrane
reported endpoint: Ki

Cl.O=C(OCC12CCN(CC1)CC2)c1c[nH]c2cc(C(F)(F)F)ccc12    > 3000 nM
Cc1cc(OC(=O)C(C)(C)C)cc2[nH]cc(C(=O)OCC34CCN(CC3)CC4)c12    2130 nM
COc1cc2[nH]cc(C(=O)OCC34CCN(CC3)CC4)c2cc1OC    2710 nM
COc1c(OCC(F)(F)F)ccc2[nH]cc(C(=O)OCC34CCN(CC3)CC4)c12    356 nM

* * *

- system tested: rat brain nicotinic receptor (α7 NAChR) (Rattus norvegicus (Rat))
- Format: binding
pKi: −log10 of the molar value.
Rule: Y for pKi not less than 7, N for anything less.

Cc1cc(F)cc2[nH]cc(C(=O)OCC34CCN(CC3)CC4)c12    N
O=C(OCC12CCN(CC1)CC2)c1c[nH]c2cccc(Cl)c12    Y
COc1cc(Cl)c2c(C(=O)OCC34CCN(CC3)CC4)c[nH]c2c1    N
COc1cc(F)c2c(C(=O)OCC34CCN(CC3)CC4)c[nH]c2c1.Cl [Compound 33, hydrochloride]    Y
Cc1ccc2[nH]cc(C(=O)OCC34CCN(CC3)CC4)c2c1C    N
O=C(OCC12CCN(CC1)CC2)c1c[nH]c2ccc(Cl)cc12 [Compound 2]    N
COc1ccc2[nH]cc(C(=O)OCC34CCN(CC3)CC4)c2c1    Y
Cc1cc(O)cc2[nH]cc(C(=O)OCC34CCN(CC3)CC4)c12    Y
O=C(OCC12CCN(CC1)CC2)c1c[nH]c2cc(O)ccc12    Y
Cl.O=C(OCC12CCN(CC1)CC2)c1c[nH]c2cc(OC(F)F)ccc12 [Compound 31, hydrochloride]    N
COc1cc2[nH]cc(C(=O)OCC34CCN(CC3)CC4)c2cc1C    N
COc1cccc2[nH]cc(C(=O)OCC34CCN(CC3)CC4)c12    Y
Cc1cc(C#N)cc2[nH]cc(C(=O)OCC34CCN(CC3)CC4)c12    N
Cc1cc2c(C(=O)OCC34CCN(CC3)CC4)c[nH]c2cc1Cl    N
O=C(OCC12CCN(CC1)CC2)c1c[nH]c2cc(F)cc(Br)c12    N
COc1cccc2c(C(=O)OCC34CCN(CC3)CC4)c[nH]c12    N
O=C(OCC12CCN(CC1)CC2)c1c[nH]c2ccc(F)c(Br)c12    N
COc1cc2c(C(=O)OCC34CCN(CC3)CC4)c[nH]c2cc1Cl    N
O=C(OCC12CCN(CC1)CC2)c1c[nH]c2cc(Cl)ccc12    N
